molecular target: S. pyogenes DHFR (Streptococcus pyogenes, UniProt Q9A091); experiment: S. pyogenes DHFR enzyme inhibition assay; format: biochemical; settings: IC50 (human)/IC50 (pathogen)
Sequence (Q9A091 1-165): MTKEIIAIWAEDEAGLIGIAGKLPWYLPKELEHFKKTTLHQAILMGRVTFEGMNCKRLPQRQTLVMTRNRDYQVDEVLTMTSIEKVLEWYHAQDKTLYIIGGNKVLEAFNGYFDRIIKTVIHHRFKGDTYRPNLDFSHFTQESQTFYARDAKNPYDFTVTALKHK
Response key: T means Selectivity (h/Sp) >= 7; F means Selectivity (h/Sp) < 7.

Dear colleague, could you confirm whether COc1cc(C(C)C#Cc2c(C)nc(N)nc2N)cc(N2CCOCC2)c1 (centres unmarked) has Selectivity (h/Sp) at or above 7?
T

Dear colleague, could you confirm whether CCc1nc(N)nc(N)c1C#CCc1cccc(-c2cccnc2)c1 has Selectivity (h/Sp) at or above 7?
F

Dear colleague, could you confirm whether CCc1nc(N)nc(N)c1C#CCc1cccc(-c2ccncc2)c1 has Selectivity (h/Sp) at or above 7?
T

Dear colleague, could you confirm whether CCc1nc(N)nc(N)c1C#CCc1cc(OC)cc(-c2ccncc2)c1 has Selectivity (h/Sp) at or above 7?
F

###

target: hDHFR (Homo sapiens (Human)); assay: hDHFR enzyme inhibition assay; assay type: biochemical; details: Table 7; read-out: IC50 (hDHFR)
Sequence (P00374 whole entry): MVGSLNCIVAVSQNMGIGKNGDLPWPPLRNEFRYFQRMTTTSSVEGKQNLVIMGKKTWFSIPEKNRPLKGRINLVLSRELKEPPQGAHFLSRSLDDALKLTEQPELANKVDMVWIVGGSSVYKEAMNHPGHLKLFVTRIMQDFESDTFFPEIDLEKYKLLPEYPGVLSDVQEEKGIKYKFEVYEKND
Each record is given label 1 if its reported IC50 is strictly below 400 nM. Records at or above 400 nM are given label 0.

COc1cc(C(C)C#Cc2c(C)nc(N)nc2N)cc(N2C[C@@H](C)O[C@@H](C)C2)c1 (mixture of isomers)
label 1
CCc1nc(N)nc(N)c1C#CC(C)c1cc(OC)cc(-c2ccncc2)c1 (centres unmarked)
label 0
CCc1nc(N)nc(N)c1C#CC(C)c1cc(OC)cc(N2C[C@@H](C)O[C@@H](C)C2)c1 (mixture of isomers)
label 1
COc1cc(-c2ccncc2)cc(C(C)C#Cc2c(C)nc(N)nc2N)c1 (centres unmarked)
label 0
COc1cc(C(C)C#Cc2c(C)nc(N)nc2N)cc(N2CCN(C)CC2)c1 (centres unmarked)
label 1
COc1cc(C(C)C#Cc2c(C)nc(N)nc2N)cc(N2CCNCC2)c1 (centres unmarked)
label 1

Consider the record given below.
Regarding CCc1nc(N)nc(N)c1C#CC(C)c1cc(OC)cc(N2CCOCC2)c1 (centres unmarked) , kindly confirm whether its IC50 is beneath 400 nM.
label 1

###

biological target: S. pyogenes DHFR (Streptococcus pyogenes, UniProt Q9A091)
The following compounds are listed with their measured IC50 values.
Write the answer as a number in nM, unit excluded.

Some compounds with recorded IC50:
CCc1nc(N)nc(N)c1C#CCc1cc(OC)cc(-c2ccccc2)c1
52
CCc1nc(N)nc(N)c1C#CC(C)c1cc(OC)cc(-c2ccncc2)c1 (stereo not drawn)
180

Attention now shifts to the item below.
Give measured IC50 for COc1ccc(-c2ccccc2)cc1C(C)C#Cc1c(C)nc(N)nc1N (stereo not drawn) (S. pyogenes DHFR (Streptococcus pyogenes, UniProt Q9A091)).
23

###

molecular target: CgDHFR (Candida glabrata (strain ATCC 2001 / BCRC 20586 / JCM 3761 / NBRC 0622 / NRRL Y-65 / CBS 138) (Yeast) (Nakaseomyces glabratus)); test: biochemical; settings: CgDHFR IC50, Table 3
measured.property: pIC50
// pIC50 is dimensionless: -log10 of concentration (M)

Some compounds with recorded pIC50:
COc1cc(C(C#Cc2c(C)nc(N)nc2N)OC)cc(OC)c1OC (stereo not shown) [Compound 8]
7.52
COc1cc(C(O)C#Cc2c(C)nc(N)nc2N)cc(OC)c1OC (stereo not shown) [Compound 7]
7.41
COc1cc([C@@H](C)C#Cc2c(C)nc(N)nc2N)cc(OC)c1OC (racemic) [Compound X]
7.60

Attention now shifts to the item below.
Answer with the recorded pIC50 of COc1cc(CC#Cc2cnc(N)nc2N)cc(OC)c1OC [Compound 1] only.
7.48

###

molecular target: CgDHFR (Candida glabrata (strain ATCC 2001 / BCRC 20586 / JCM 3761 / NBRC 0622 / NRRL Y-65 / CBS 138) (Yeast) (Nakaseomyces glabratus), UniProt Q6FPH0); assay: biochemical; settings: Table 11; read-out: CgDHFR IC50
Sequence (Q6FPH0 1-217): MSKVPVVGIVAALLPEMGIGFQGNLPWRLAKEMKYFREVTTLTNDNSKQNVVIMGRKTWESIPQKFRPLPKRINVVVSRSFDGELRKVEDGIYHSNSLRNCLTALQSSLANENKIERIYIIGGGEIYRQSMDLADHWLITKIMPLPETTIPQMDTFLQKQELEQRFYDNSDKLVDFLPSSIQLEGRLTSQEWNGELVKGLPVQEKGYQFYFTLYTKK
measured.property: pIC50
// pIC50 is dimensionless: -log10 of concentration (M)

COc1cc(-c2ccc(C)cc2)cc([C@@H](C)C#Cc2c(C)nc(N)nc2N)c1
9.22

Attention now shifts to the item below.
Answer with the recorded pIC50 of COc1cc(-c2cc(C)cc(C)c2)cc([C@@H](C)C#Cc2c(C)nc(N)nc2N)c1 only.
9.26

###

Test system: C. glabrata
Test: Antifungal assay (MIC, Alamar Blue)
Assay type: cell-based, Candida glabrata
Settings: C. glabrata; Inact: not active at 2 mM (~600 μg/mL)
Procedure: Antifungal assays were performed using C. glabrata as a suspension in 50% glycerol at −78° C. For susceptibility testing, a streak of stock culture was made on SDA agar and grown at 30° C. for 48 h. […] After an incubation period determined from the strain specific doubling time, Alamar Blue (10 μL) was added, allowed to incubate; each well was scored for dye reduction. Several representative compounds were also evaluated in thymidine-depleted media. […]
measured.property: Antifungal activity MIC

Some molecules with recorded Antifungal activity MIC:
COc1cc(C(C#Cc2cnc(N)nc2N)OC)cc(OC)c1OC (centres unmarked)
Inact
COc1ccc(OC)c(CC#Cc2c(C)nc(N)nc2N)c1
56 µg/mL
COc1cc(C(C)C#Cc2cnc(N)nc2N)cc(OC)c1OC (centres unmarked)
Inact
COc1cc(C(O)C#Cc2c(C)nc(N)nc2N)cc(OC)c1OC (centres unmarked)
Inact
CCc1nc(N)nc(N)c1C#CCc1cc(OC)ccc1OC
78 µg/mL

Answer with the recorded Antifungal activity MIC of COc1cc(C(C#Cc2c(C)nc(N)nc2N)OC)cc(OC)c1OC (centres unmarked) only.
Inact

Answer with the recorded Antifungal activity MIC of COc1ccc(OC)c(CC#Cc2cnc(N)nc2N)c1 only.
72 µg/mL

###

biological target: ChDHFR-TS (Cryptosporidium hominis, UniProt Q27552); assay: ChDHFR enzyme inhibition assay; format: biochemical; conditions: IC50 (ChDHFR), Table 4
Sequence (Q27552 1-521): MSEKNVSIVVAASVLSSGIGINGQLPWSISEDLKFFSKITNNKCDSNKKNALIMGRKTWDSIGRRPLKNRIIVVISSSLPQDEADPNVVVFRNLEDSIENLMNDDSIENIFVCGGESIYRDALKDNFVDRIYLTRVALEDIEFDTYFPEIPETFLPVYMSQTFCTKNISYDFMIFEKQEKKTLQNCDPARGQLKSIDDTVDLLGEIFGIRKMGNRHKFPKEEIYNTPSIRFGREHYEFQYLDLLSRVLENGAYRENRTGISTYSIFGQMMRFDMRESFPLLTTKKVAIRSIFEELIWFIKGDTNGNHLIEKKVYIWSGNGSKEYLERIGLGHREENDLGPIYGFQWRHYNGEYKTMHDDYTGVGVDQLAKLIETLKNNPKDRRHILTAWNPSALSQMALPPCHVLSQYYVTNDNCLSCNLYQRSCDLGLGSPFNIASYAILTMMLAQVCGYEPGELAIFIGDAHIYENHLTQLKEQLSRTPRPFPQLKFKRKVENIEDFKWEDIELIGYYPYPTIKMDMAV
The following compounds are listed with their measured IC50 values.
Write the answer as a number in nM, unit excluded.

Answer with the recorded IC50 of COc1cc([C@@H](C)C#Cc2c(C)nc(N)nc2N)cc(OC)c1OC (racemic) only.
169

Answer with the recorded IC50 of COc1cc(-c2ccccc2C)ccc1C(C)C#Cc1c(C)nc(N)nc1N (stereo not drawn) only.
36

Answer with the recorded IC50 of COc1cc(-c2ccccc2)cc([C@H](C)C#Cc2c(C)nc(N)nc2N)c1 (single isomer, unassigned) [D (S)] only.
30

###

test: Measured solubility; format: physicochemical; conditions: aqueous with cosolvent or surfactant or cyclodextrin, kinetic from dmso stock; in 200 mcg/mL HPMC and 0.2% DMSO; read-out: Solubility
measured.property: Solubility (µg/mL)
Write the answer as a number in µg/mL, unit excluded.

Answer with the recorded Solubility of COc1cc(-c2ccccc2)cc(C(C)C#Cc2c(C)nc(N)nc2N)c1 (racemic) [Compound 139] only.
20

###

The following compounds are listed with their measured MIC (Cg) values.
tested on: C. glabrata; assay: Antifungal assay (MIC, Alamar Blue); assay type: cell-based, Candida glabrata; conditions: C. glabrata, YM media
Write the answer as a number in mg/L, unit excluded.

Some compounds with recorded MIC (Cg):
COc1cc(C(C)C#Cc2c(C)nc(N)nc2N)cc(N2CCN(C)CC2)c1 (stereo not shown) [Compound 158]
95
COc1cc(-c2ccncc2)cc(C(C)C#Cc2c(C)nc(N)nc2N)c1 (stereo not shown) [Compound 147]
1.4
COc1cc(-c2cc(C)cc(C)c2)cc([C@@H](C)C#Cc2c(C)nc(N)nc2N)c1 [Compound 140]
3.1

Attention now shifts to the item below.
Answer with the recorded MIC (Cg) of CCc1nc(N)nc(N)c1C#CC(C)c1cc(OC)cc(-c2ccncc2)c1 (stereo not shown) [Compound 148] only.
1.5

###

target: CgDHFR (Candida glabrata (strain ATCC 2001 / BCRC 20586 / JCM 3761 / NBRC 0622 / NRRL Y-65 / CBS 138) (Yeast) (Nakaseomyces glabratus), UniProt Q6FPH0); test: biochemical; conditions: Table 3; read-out: CgDHFR IC50
The following compounds are listed with their measured IC50 values.

Some compounds with recorded IC50:
COc1ccc(OC)c(CC#Cc2cnc(N)nc2N)c1 [Compound 9]
21 nM
COc1cc(C(C#Cc2cnc(N)nc2N)OC)cc(OC)c1OC (stereo not shown) [Compound 4]
450 nM

Answer with the recorded IC50 of COc1ccc(OC)c(CC#Cc2c(C)nc(N)nc2N)c1 [Compound 10] only.
32 nM

Answer with the recorded IC50 of CCc1nc(N)nc(N)c1C#CCc1cc(OC)ccc1OC [Compound 11] only.
8.2 nM

Answer with the recorded IC50 of COc1cc(C(C)C#Cc2cnc(N)nc2N)cc(OC)c1OC (stereo not shown) [Compound 2] only.
36 nM

Answer with the recorded IC50 of COc1cc(C(O)C#Cc2cnc(N)nc2N)cc(OC)c1OC (stereo not shown) [Compound 3] only.
2700 nM

Answer with the recorded IC50 of COc1cc(CC#Cc2c(C)nc(N)nc2N)cc(OC)c1OC [Compound 5] only.
17 nM

The origin of these recorded values is patent US8853228B2.
